# TARGET OR TEST SYSTEM: c-kit (Homo sapiens)
# Construct: MO7e (human megakaryocytic leukemia cell line) which had been arrested for 20 hr; endogenous in cells; host or cells: MO7e human megakaryocytic leukemia cell line
# MEASUREMENT DESCRIPTION: Inhibitory activity against c-kit autophosphorylation (MO7e cells, h-SCF)
# Type: cell-based
# PROTOCOL CONDITIONS: MO7e cells, h-SCF stimulation; read-out: c-kit IC50
PROPERTY MEASURED: IC50 (nM)
Provide the reading as a plain figure in nM.

COc1cc2nccc(Oc3ccc(NC(=S)NC(=O)c4cccc(Cl)c4)cc3F)c2cc1OC	136
COc1cc2nccc(Oc3ccc(NC(=S)NC(=O)c4cccc(C)c4)cc3)c2cc1OC	184
COc1cc2nccc(Oc3ccc(SCCCOc4ccccc4F)cc3)c2cc1OC	127

Q: # IC50 lookup, item CCCCCC(=O)NC(=S)Nc1ccc(Oc2ncnc3cc(OC)c(OC)cc23)cc1
A: 73

Q: # IC50 lookup, item COc1cc2nccc(Oc3ccc(SCCOc4ccccc4C)cc3)c2cc1OC
A: 195

###

# TARGET OR TEST SYSTEM: c-kit (Homo sapiens, UniProt P10721)
# Construct: MO7e (human megakaryocytic leukemia cell line) which had been arrested for 20 hr; endogenous in cells; host or cells: MO7e human megakaryocytic leukemia cell line
# Sequence (P10721 26-976): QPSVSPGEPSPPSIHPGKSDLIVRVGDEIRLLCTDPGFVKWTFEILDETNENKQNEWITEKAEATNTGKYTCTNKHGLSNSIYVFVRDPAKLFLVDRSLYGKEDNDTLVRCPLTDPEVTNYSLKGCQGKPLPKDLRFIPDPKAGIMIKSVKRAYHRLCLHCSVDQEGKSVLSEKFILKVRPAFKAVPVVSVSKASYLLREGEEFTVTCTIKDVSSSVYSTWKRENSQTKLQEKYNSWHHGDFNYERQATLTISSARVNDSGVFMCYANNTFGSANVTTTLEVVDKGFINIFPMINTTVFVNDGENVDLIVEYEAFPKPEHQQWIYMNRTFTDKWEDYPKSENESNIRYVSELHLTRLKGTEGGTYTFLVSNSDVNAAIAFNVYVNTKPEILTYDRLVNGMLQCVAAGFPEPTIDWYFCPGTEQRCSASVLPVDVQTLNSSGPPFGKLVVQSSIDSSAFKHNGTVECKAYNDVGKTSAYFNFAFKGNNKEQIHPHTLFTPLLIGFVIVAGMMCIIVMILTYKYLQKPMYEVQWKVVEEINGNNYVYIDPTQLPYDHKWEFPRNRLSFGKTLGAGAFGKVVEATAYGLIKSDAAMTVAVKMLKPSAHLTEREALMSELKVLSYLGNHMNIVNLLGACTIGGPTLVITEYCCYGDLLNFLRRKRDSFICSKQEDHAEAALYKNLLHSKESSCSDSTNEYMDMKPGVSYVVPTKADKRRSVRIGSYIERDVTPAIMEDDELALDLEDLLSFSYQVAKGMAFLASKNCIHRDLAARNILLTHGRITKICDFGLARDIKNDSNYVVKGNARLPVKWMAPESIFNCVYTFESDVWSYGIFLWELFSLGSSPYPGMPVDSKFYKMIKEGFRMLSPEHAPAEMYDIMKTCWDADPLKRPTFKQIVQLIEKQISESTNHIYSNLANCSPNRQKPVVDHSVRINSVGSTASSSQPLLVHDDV
# MEASUREMENT DESCRIPTION: Inhibitory activity against c-kit autophosphorylation (MO7e cells, h-SCF)
# Format: cell-based
# PROTOCOL CONDITIONS: MO7e cells, h-SCF 50 ng/ml; read-out: c-kit IC50
PROPERTY MEASURED: IC50 (nM)
Provide the reading as a plain figure in nM.

COc1cc2ncnc(Oc3ccc(NC(=O)OCCCOc4ccc(Cl)cc4)c(C)c3C)c2cc1OC	61
COc1cc2nccc(Oc3ccc(NC(=O)OC(C)c4cc(F)c(F)cc4F)cc3)c2cc1OC (centres unmarked)	677
COc1cc2nccc(Oc3ccc(NC(=O)OCc4ccc(C(F)(F)F)cc4)c(C)c3C)c2cc1OC	186
COc1ccc(OC)c(COC(=O)Nc2ccc(Oc3ccnc4cc(OC)c(OC)cc34)c(C)c2C)c1	294
CCC(OC(=O)Nc1ccc(Oc2ccnc3cc(OC)c(OC)cc23)c(C)c1C)c1ccccc1 (centres unmarked)	122

Turning now to a further record.
Q: # IC50 lookup, item COc1cc2nccc(Oc3ccc(NC(=O)OC4CCCCC4)c(C)c3C)c2cc1OC
A: 101

###

# TARGET OR TEST SYSTEM: PDGF-Ra (Homo sapiens)
# Construct: host or cells: G-292 human osteosarcoma cells
# Sequence (P16234 24-1089): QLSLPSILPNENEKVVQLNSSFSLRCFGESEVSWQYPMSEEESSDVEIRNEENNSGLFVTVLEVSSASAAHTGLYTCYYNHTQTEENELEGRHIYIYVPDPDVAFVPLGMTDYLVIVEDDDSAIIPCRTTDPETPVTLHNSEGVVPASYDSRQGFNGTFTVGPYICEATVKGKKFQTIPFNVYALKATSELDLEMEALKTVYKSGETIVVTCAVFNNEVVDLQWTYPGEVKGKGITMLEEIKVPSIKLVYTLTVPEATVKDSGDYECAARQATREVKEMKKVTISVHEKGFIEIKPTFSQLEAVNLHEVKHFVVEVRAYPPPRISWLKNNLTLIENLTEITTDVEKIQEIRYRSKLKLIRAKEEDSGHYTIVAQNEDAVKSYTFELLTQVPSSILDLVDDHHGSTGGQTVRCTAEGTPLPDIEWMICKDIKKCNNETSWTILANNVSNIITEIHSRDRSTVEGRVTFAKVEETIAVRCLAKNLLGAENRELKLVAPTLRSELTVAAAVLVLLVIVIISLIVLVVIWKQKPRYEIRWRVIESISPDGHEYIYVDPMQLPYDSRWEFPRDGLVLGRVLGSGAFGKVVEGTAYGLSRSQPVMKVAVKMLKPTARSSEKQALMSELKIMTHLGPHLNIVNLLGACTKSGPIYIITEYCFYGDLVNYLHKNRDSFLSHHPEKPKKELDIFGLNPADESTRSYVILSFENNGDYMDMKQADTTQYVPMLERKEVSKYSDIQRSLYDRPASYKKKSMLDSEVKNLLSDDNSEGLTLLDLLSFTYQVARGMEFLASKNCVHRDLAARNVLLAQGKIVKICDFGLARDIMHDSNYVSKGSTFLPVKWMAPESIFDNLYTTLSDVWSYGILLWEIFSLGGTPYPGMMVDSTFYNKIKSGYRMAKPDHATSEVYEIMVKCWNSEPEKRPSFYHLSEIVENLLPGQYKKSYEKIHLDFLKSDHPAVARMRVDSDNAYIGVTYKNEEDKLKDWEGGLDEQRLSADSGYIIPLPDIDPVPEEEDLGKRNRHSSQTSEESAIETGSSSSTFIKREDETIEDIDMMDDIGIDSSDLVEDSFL
# MEASUREMENT DESCRIPTION: Inhibitory activity against PDGF-Ra phosphorylation by PDGF-AA stimulation using G292
# Format: cell-based
# PROTOCOL CONDITIONS: G292; figure within parentheses in >100( ); at 100 nM; read-out: PDGF (E) inhibition (%) at 100 nM
PROPERTY MEASURED: inhibition at 0.1 µM (%)
Provide the reading as a plain figure in %.

Some solved cases for reference:
CCN(CC)CCOC(=O)Nc1ccc(Oc2ncnc3cc(OC)c(OC)cc23)cc1	46
COc1cc2ncnc(Oc3ccc(NC(=O)N4CCN(Cc5ccccc5)CC4)cc3)c2cc1OC	10
CCCC(CCN1CCOCC1)OC(=O)Nc1cc(C)c(Oc2ccnc3cc(OC)c(OC)cc23)cc1C (stereo not shown)	41

Q: # inhibition at 0.1 µM lookup, item COc1cc2nccc(Oc3ccc(NC(=O)ON4C(=O)c5ccccc5C4=O)cc3)c2cc1OC
A: 49

Q: # inhibition at 0.1 µM lookup, item COc1cc2nccc(Oc3ccc(NC(=S)NC(=O)c4cc(C)oc4C)c(C)c3)c2cc1OC
A: 34

Q: # inhibition at 0.1 µM lookup, item CCN(C(=O)OCc1ccccc1OC)c1ccc(Oc2ncnc3cc(OC)c(OC)cc23)cc1Cl
A: 35

Q: # inhibition at 0.1 µM lookup, item CCN(C(=O)OCc1ccccc1Cl)c1ccc(Oc2ncnc3cc(OC)c(OC)cc23)cc1Cl
A: 31

Q: # inhibition at 0.1 µM lookup, item COc1cc2nccc(Oc3ccc(NC(=O)Oc4cccc(C#N)c4)cc3)c2cc1OC
A: 29

Q: # inhibition at 0.1 µM lookup, item COc1cc2nccc(Oc3ccc(NC(=O)NC4CCN(Cc5ccccc5)CC4)cc3C)c2cc1OC
A: 20

Q: # inhibition at 0.1 µM lookup, item COc1cc2nccc(Oc3cc(C)c(NC(=O)NCCN(C)C)cc3C)c2cc1OC
A: 31

Q: # inhibition at 0.1 µM lookup, item COc1cc2ncnc(Oc3ccc(NC(=O)NN4CCCCC4)c([N+](=O)[O-])c3)c2cc1OC
A: 27

Q: # inhibition at 0.1 µM lookup, item CCCCN(CCCC)CCNC(=O)Nc1ccc(Oc2ccnc3cc(OC)c(OC)cc23)cc1OC
A: 42

Q: # inhibition at 0.1 µM lookup, item CCCC(CCN(CC)CC)OC(=O)Nc1cc(C)c(Oc2ccnc3cc(OC)c(OC)cc23)cc1C (stereo not shown)
A: 32

Q: # inhibition at 0.1 µM lookup, item CCCC(CCN1CCN(C)CC1)OC(=O)Nc1cc(C)c(Oc2ccnc3cc(OC)c(OC)cc23)cc1C (stereo not shown)
A: 13

Q: # inhibition at 0.1 µM lookup, item COc1cc2nccc(Oc3ccc(NC(=S)NCCN(C)C)c(C)c3C)c2cc1OC
A: 45

Q: # inhibition at 0.1 µM lookup, item COc1cc2nccc(Oc3cc(C)c(NC(=O)OC4CCN(C)CC4)cc3C)c2cc1OC
A: 8
